Cited source: PubChem BioAssay (NCATS)

assay: qHTS of pediatric cancer cell lines to identify multiple opportunities for drug repurposing: Primary screen for LAN-5 cells (AID 1347100); settings: LAN-5 neuroblastoma viability, CellTiter-Glo luminescence, 48 h; series mostly up to 46 µM;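 also: plate controls were DMSO neutral control for no effect and bortezomib positive control for full effect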
Inconclusive results are not listed. Active and inactive are the calls of the source. Calls follow the shape of the dose curve; as a rule, active = well fitted cell-killing curve with a large enough effect; inconclusive = small, poorly fitted or top-dose-only effect; inactive = no such curve, though single readings can be large or run the other way.
Test readout: activity change, negative = cytotoxic

These solved cases illustrate the format of a correct answer.
> print(dat)
                                   compound                           test.readout    result
1                  CN1CCN(C(=O)C2CCCCC2)CC1  activity change, negative = cytotoxic  inactive
2  Cc1onc(-c2ccccc2)c1-c1ccc(S(N)(=O)=O)cc1  activity change, negative = cytotoxic  inactive
3  CC(CSC(=O)c1ccccc1)C(=O)N1C[C@@H](Sc2ccccc2)C[C@H]1C(=O)O (stereo partly specified)  activity change, negative = cytotoxic  inactive
4        CCN(CC)CCOC(=O)C(c1ccccc1)c1ccccc1  activity change, negative = cytotoxic  inactive
5  COCC(=O)Nc1c(I)c(C(=O)NCC(O)CO)c(I)c(C(=O)N(C)CC(O)CO)c1I (stereo unspecified)  activity change, negative = cytotoxic  inactive

Each compound below has a reported value. Please supply its activity change, negative = cytotoxic.
1. CC(C)(C)C(=O)OCOC(=O)[C@@H]1N2C(=O)[C@@H](NC(=O)[C@H](N)c3ccccc3)[C@H]2SC1(C)C
2. COc1ccc(Cc2cnc(N)nc2N)cc1OC
3. Cc1ccccc1N=Nc1ccc(N=Nc2c(O)ccc3ccccc23)c(C)c1
4. O=C(NCN1CCOCC1)c1cnccn1
5. C[N+](C)(C)CC(O)CC(=O)[O-] (stereo unspecified)

Ans:
["inactive", "inactive", "inactive", "inactive", "inactive"]

Q: Complete the entry with activity change, negative = cytotoxic for NC(N)=NCCN1CCCCCCC1
Ans: 4.87% [at 0.597 µM] (inactive)

----------
assay: qHTS of pediatric cancer cell lines to identify multiple opportunities for drug repurposing: Primary screen for OHS-50 cells (AID 1347103); settings: OHS-50 osteosarcoma viability, CellTiter-Glo luminescence, 48 h; series mostly up to 57.3 µM;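 also: plate controls were DMSO neutral control for no effect and bortezomib positive control for full effect; nearly all actives have a fitted effect of over 40% in size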
Records with an inconclusive call do not appear. Calls of active or inactive are those of the source. The call rests on the fitted dose curve; in most records, active means well fitted cell-killing curve with a large enough effect; inconclusive means small, poorly fitted or top-dose-only effect; inactive means no such curve, though single readings can be large or run the other way.
Test readout: activity change, negative = cytotoxic

These solved cases illustrate the format of a correct answer.
Molecule	activity change, negative = cytotoxic
CC(=O)NS(=O)(=O)c1ccc(N)cc1	inactive
Nc1ccc(S(=O)(=O)c2ccc(N)cc2)cc1	inactive
Cn1c(=O)c2c(ncn2CCO)n(C)c1=O	inactive
CC(=O)N[C@@H](CC(C)C)C(=O)O	inactive
CO[C@@]1(NC(=O)C(C(=O)O)c2ccc(O)cc2)C(=O)N2C(C(=O)O)=C(CSc3nnnn3C)CO[C@@H]21 (stereo not given in full)	inactive
COC(=O)N/N=C/c1c[n+]([O-])c2ccccc2[n+]1[O-]	inactive
Cc1cccc(C)c1NC(=O)CC12CCCN1CCC2	inactive
Cc1c(I)c(=O)n(-c2ccccc2)n1C	inactive
O=C1c2cccc(O)c2C(=O)c2c(O)cccc21	inactive
COc1ccc(C(=O)NCc2ccc(OCCN(C)C)cc2)cc1OC	inactive

Each molecule below has a reported value. Please supply its activity change, negative = cytotoxic.
1. NC(=O)NC1NC(=O)NC1=O (stereo not given)
2. C[n+]1ccccc1/C=N/O
3. CCCCC1(COC(=O)CCC(=O)O)C(=O)N(c2ccccc2)N(c2ccccc2)C1=O
4. CN1CCN(C(=O)C2CCCCC2)CC1
5. CC(N)CCCC(C)(C)O (stereo not given)
6. O=C(c1ccccc1)C(O)c1ccccc1 (stereo not given)

Ans:
1. inactive
2. inactive
3. inactive
4. inactive
5. inactive
6. inactive

Each molecule below has a reported value. Please supply its activity change, negative = cytotoxic.
1. C[N+](C)(C)CC[N+]1(C)Cc2c(Cl)c(Cl)c(Cl)c(Cl)c2C1
2. CC1(c2ccccc2)OC(C(=O)O)=CC1=O (stereo not given)
3. Cc1[nH]c(C)c(Cl)c(=O)c1Cl
4. CCCCCC(N)=O
5. OC[C@@H](O)[C@@H](O)[C@H](O)[C@H](O)CO
6. C/C(=C(\CCO)SS/C(CCO)=C(\C)N(C=O)Cc1cnc(C)nc1N)N(C=O)Cc1cnc(C)nc1N
7. C/C=C1\[C@H]2C=C(C)C[C@]1(N)c1ccc(=O)[nH]c1C2
8. CN[C@@H]1[C@@H](O)[C@@H](O[C@@H]2[C@H](O)[C@H](O[C@H]3OC(CN)=CC[C@H]3N)[C@@H](N)C[C@H]2N)OCC1(C)O (stereo not given in full)

Ans:
inactive
inactive
inactive
inactive
inactive
inactive
inactive
inactive

Q: Complete the entry with activity change, negative = cytotoxic for CN1C[C@@H]2C[C@H]1CN2c1cc2c(cc1F)c(=O)c(C(=O)O)cn2C1CC1
Ans: inactive
